sequences and their reported self-aminoacylation
- System: biotinyl-Met-oxazolone
- run.description: self-aminoacylation, catalytic enhancement (BMO) (fold over background); higher = more active; k-Seq, kA / k0A0; sequences stand for … in GGGAAUGGAUCCACAUCUACGAAUUC…UUCACUGCAGACUUGACGAAGCUG
This sample holds only a part of the variants without activity.
Give the figure by itself; no unit, no explanation.

# input.sequence, target, self-aminoacylation
measured = [
    ("CUACUUCAAAUAAGCGGUCUG [Fam1A.1 aminoacylation ribozyme variant]", "biotinyl-Met-oxazolone", 0.797),
    ("AUUCACCUUGGUCAUCUGGUG [Fam2.2 aminoacylation ribozyme variant]", "biotinyl-Met-oxazolone", 2.82),
    ("CUACUUCAUACAAACGGUCUG [Fam1A.1 aminoacylation ribozyme variant]", "biotinyl-Met-oxazolone", 0.725),
]

Please look at the following sequence next.
The sequence identified as AUUACCCUGGGCACCGAGUGA [Fam2.1 aminoacylation ribozyme variant] registered its self-aminoacylation at 6.11

###

- System: biotinyl-Met-oxazolone
- run.description: self-aminoacylation, catalytic enhancement (BMO) (fold over background); higher = more active; k-Seq, kA / k0A0; sequences stand for … in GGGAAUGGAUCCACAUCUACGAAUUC…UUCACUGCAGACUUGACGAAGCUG
Variants at the floor of the assay were thinned out.
parameter.measured: self-aminoacylation
The reply should be a number, written without any unit.

Assay biotinyl-Met-oxazolone, sample GUACUUCAAACAAUCGUUCUG [Fam1A.1 aminoacylation ribozyme variant] , self-aminoacylation read: 0.889

Entry AUUACUCUGCUCAUCGAGUGA [Fam2.1 aminoacylation ribozyme variant] , tested on biotinyl-Met-oxazolone, has a reported self-aminoacylation of 1.58

###

- Test system: biotinyl-Trp-oxazolone
- run.description: self-aminoacylation, catalytic enhancement (BWO) (fold over background); higher = more active; k-Seq, kA / k0A0; sequences stand for … in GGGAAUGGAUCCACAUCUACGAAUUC…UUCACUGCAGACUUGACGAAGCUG
Fewer inactive variants are shown than the library holds.
parameter.measured: self-aminoacylation
Form rule: numeric answer, no unit written next to it.

Consider the worked cases shown below.
# input.sequence, self-aminoacylation
data = [
    ("CCACACUUCAAGCACUCGGUC [Fam1B.1 aminoacylation ribozyme variant]", 0.733),
    ("AUUAGCCUGGUCAUCUAGUGA [Fam2.1 aminoacylation ribozyme variant]", 6.32),
]

self-aminoacylation for AUGUUUGCUAAUAGUCGCAUG [Fam3.1 aminoacylation ribozyme variant] is 1.38

Just so you know, measured self-aminoacylation for AAGAUUGCUAAUAGUCGUAAG [Fam3.1 aminoacylation ribozyme variant] came out at 2.41

###

- System: biotinyl-Val-oxazolone
- run.description: self-aminoacylation, catalytic enhancement (BVO) (fold over background); higher = more active; k-Seq, kA / k0A0; sequences stand for … in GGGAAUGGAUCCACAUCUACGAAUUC…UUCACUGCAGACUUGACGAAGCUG
Variants at the floor of the assay were thinned out.
parameter.measured: self-aminoacylation

# input.sequence, self-aminoacylation
measured = [
    ("CCACACUUCAAGCGAUCGGUC [Fam1B.1 aminoacylation ribozyme variant]", 1.02),
    ("AAGUCUGCUAAUAGUCUCAAG [Fam3.1 aminoacylation ribozyme variant]", 1.2),
    ("AGUACCCUGGUCAUCGGGUGA [Fam2.1 aminoacylation ribozyme variant]", 9.99),
    ("CUACUUCAAACAUUCGUUCUG [Fam1A.1 aminoacylation ribozyme variant]", 0.706),
    ("AAGUUUGCUAACAGUCGCAAA [Fam3.1 aminoacylation ribozyme variant]", 0.995),
    ("CUACUUCACACACUCGGUCUG [Fam1A.1 aminoacylation ribozyme variant]", 1.49),
    ("AUGUUUGCUAAUAGCCGCAAG [Fam3.1 aminoacylation ribozyme variant]", 1.04),
    ("AAGCUUGCUAAUAGUAGCAAG [Fam3.1 aminoacylation ribozyme variant]", 1.3),
]

Note to self: self-aminoacylation of CUUUCCCUGGUCAUCGAGUGA [Fam2.1 aminoacylation ribozyme variant] with biotinyl-Val-oxazolone was 5.04

Hey, biotinyl-Val-oxazolone data for AUUAACCUUGUCAUCGAGUGA [Fam2.1 aminoacylation ribozyme variant] : self-aminoacylation came out at 3.39

Short answer on biotinyl-Val-oxazolone for CCUCAUUUCAAGCAAUCGGUC [Fam1B.1 aminoacylation ribozyme variant] , self-aminoacylation: 1.05

Bench note, biotinyl-Val-oxazolone: UAGUUUGCUAAUAGUGGCAAG [Fam3.1 aminoacylation ribozyme variant] , self-aminoacylation reads 0.688

Tested on biotinyl-Val-oxazolone, the item CCACAAUUGAAGCAAUCGGUC [Fam1B.1 aminoacylation ribozyme variant] showed self-aminoacylation equal to 0.869

Fill in: biotinyl-Val-oxazolone self-aminoacylation for CUACUUCAAACAACCAGUCUG [Fam1A.1 aminoacylation ribozyme variant] = 0.797

Observed self-aminoacylation, biotinyl-Val-oxazolone, AUUACCCUGGUCAUCGAGUUG [Fam2.1 aminoacylation ribozyme variant] : 1.75

Log: biotinyl-Val-oxazolone, sequence AUUCACUAAGGUCAUCGGGUG [Fam2.2 aminoacylation ribozyme variant] , self-aminoacylation = 3.66

###

- Tested on: biotinyl-Met-oxazolone
- run.description: self-aminoacylation, catalytic enhancement (BMO) (fold over background); higher = more active; k-Seq, kA / k0A0; sequences stand for … in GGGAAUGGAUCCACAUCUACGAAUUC…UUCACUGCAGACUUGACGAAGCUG
This sample holds only a part of the variants without activity.
Give y when the value for self-aminoacylation is at least 1. Give n when it is less.

# input.sequence, class
data = [
    ("UUUCACCUAGGUCAUAGGGUG [Fam2.2 aminoacylation ribozyme variant]", "y"),
]

Assess whether reported self-aminoacylation for AAUACCCUGGUCAUUGAGUGA [Fam2.1 aminoacylation ribozyme variant] sits at 1 or higher. y

Could you tell me if the measured self-aminoacylation of AUUCAACUAGGUCAUCGGGUU [Fam2.2 aminoacylation ribozyme variant] reaches 1 or more? y

Would you say CUUACCCUGGUCAUCGACUGA [Fam2.1 aminoacylation ribozyme variant] shows self-aminoacylation at minimum 1? n

Identify whether the reported self-aminoacylation of the following sequence is 1 or greater: CCGCACUACAAGCAAUCGGUC [Fam1B.1 aminoacylation ribozyme variant] n

Please indicate if the recorded self-aminoacylation for AUUACCCUGGUAAUCGGGUGA [Fam2.1 aminoacylation ribozyme variant] meets or exceeds 1. y

Record CUACUUCAAACACUCUGUCUG [Fam1A.1 aminoacylation ribozyme variant] ; criterion: self-aminoacylation no lower than 1. Met? n

Ref: the supplement of paper PMC9233669
